Numbers sourced from patent US20070010669A1.

target: HDAC (Homo sapiens); assay: Inhibition of the enzyme HDAC (Examples 12 and 13); type: biochemical; conditions: Example 12; read-out: ID50 as inhibitor of HDAC
Sequence (Q13547 whole entry): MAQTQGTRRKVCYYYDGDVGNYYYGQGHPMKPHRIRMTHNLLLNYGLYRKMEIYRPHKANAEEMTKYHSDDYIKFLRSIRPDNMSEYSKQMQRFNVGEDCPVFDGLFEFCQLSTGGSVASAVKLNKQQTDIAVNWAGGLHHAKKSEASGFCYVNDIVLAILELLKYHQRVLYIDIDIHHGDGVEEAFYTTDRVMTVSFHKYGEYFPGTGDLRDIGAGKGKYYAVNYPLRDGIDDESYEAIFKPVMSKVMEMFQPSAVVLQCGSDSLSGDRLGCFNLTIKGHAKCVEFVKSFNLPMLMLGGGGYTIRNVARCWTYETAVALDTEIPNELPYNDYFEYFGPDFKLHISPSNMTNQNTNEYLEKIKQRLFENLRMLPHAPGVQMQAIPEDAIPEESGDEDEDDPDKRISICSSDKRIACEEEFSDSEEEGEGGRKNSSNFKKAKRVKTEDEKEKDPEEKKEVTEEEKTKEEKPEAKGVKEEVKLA
METRIC: IC50 (nM)
Use nM as the unit, but write only the number.

COMPOUND	UOM	IC50
O=C(CCCCC[C@H](NC(=O)OCc1ccccc1)C(=O)Nc1cccc2cccnc12)NO [Compound 4]	nM	2.5

Now consider a different compound.
Consider the compound O=C(CCCCCC(C(=O)Nc1cccc2cccnc12)C(=O)Nc1cccc2cccnc12)NO [Compound 7] and give its measured IC50.
50

* * *

Molecular target: UniProt:Q13547
Assay: Histone Deacetylase (HDAC) enzymatic activity, [3H]acetyl-labeled histone substrate
Type: biochemical
Set-up: Flag
Conditions: Table 2; unit column μm; read-out: HDAC inh ID50
Method: Substrate ([^3H]acetyl-labeled murine erythroleukemia cell-derived histone) was added and the samples were incubated for 20 min at 37° C. in a total volume of 30 μl. The reaction were then stopped and released acetate was extracted and the amount of radioactivity released determined by scintillation counting. Substrate ([^3H]acetyl-labelled murine erythroleukemia cell-derived histone) was added and the samples were incubated for 20 min at 37° C. in a total volume of 30 μl. […]
pIC50: −log10 of the molar value.
METRIC: pIC50

COMPOUND_SMILES	EXPERIMENTAL_VALUE
O=C(O)CCCCC[C@@H](NC(=O)c1ccccc1)C(=O)Nc1ccccc1	< 4.00

So what's the measured pIC50 for this one? O=C(O)CCCCC[C@@H](NC(=O)c1cccnc1)C(=O)Nc1ccccc1
< 4.00

* * *

target: affinity purified human epitope-tagged (Flag) HDAC1 (Homo sapiens, UniProt Q13547); test: Histone Deacetylase (HDAC) enzymatic activity, [3H]acetyl-labeled histone substrate; assay type: biochemical; parameters: Flag; conditions: Table 2; unit nM; read-out: HDAC inh ID50
Sequence (Q13547 whole entry): as above
Each entry below carries its reported IC50.
# unit: nM | format: bare number

Consider the reported IC50 for these molecules:
COMPOUND_SMILES	TGT	EXPERIMENTAL_VALUE
O=C(CCCCCC(C(=O)Nc1ccccc1)C(=O)Nc1ccccc1)NO	affinity purified human epitope-tagged (Flag) HDAC1 (Homo sapiens, UniProt Q13547)	100
O=C(CCCCCC(C(=O)Nc1cccc2cccnc12)C(=O)Nc1cccc2cccnc12)NO	affinity purified human epitope-tagged (Flag) HDAC1 (Homo sapiens, UniProt Q13547)	50
O=C(CCCCC[C@@H](NC(=O)c1ccccc1)C(=O)Nc1cccc2cccnc12)NO	affinity purified human epitope-tagged (Flag) HDAC1 (Homo sapiens, UniProt Q13547)	20
O=C(CCCCCC(CCCCCC(=O)NO)(C(=O)Nc1cccc2cccnc12)C(=O)Nc1cccc2cccnc12)NO	affinity purified human epitope-tagged (Flag) HDAC1 (Homo sapiens, UniProt Q13547)	150
O=C(CCCCC[C@H](NC(=O)c1cnc2ccccc2c1)C(=O)Nc1ccccc1)NO	affinity purified human epitope-tagged (Flag) HDAC1 (Homo sapiens, UniProt Q13547)	50

Fill in: IC50 of O=C(/C=C/c1cccc(CC(=O)Nc2ccccc2)c1)NO is ___
200

Same read-out for O=C(CCCCC[C@H](NC(=O)OCc1ccccc1)C(=O)Nc1cccc2cccnc12)NO ?
2.5

Okay, and O=C(CCCCC[C@@H](NC(=O)c1ccccc1)NC(=O)C1CCCCC1)NO ?
100

And the next one, O=C(CCCCCCC(=O)Nc1cccc2cccnc12)NO ?
100

Moving on to CN(C)c1cccc2cc(S(=O)(=O)NCCCCCC(=O)NO)ccc12
200
